- MEASUREMENT_TARGET: EGFR Δ746-750 mutant (Homo sapiens (Human), UniProt P00533, DEL746-750)
- Sequence (P00533 other isoform, or with tags, fused parts or gaps del 1-668/del 746-750 limits assumed): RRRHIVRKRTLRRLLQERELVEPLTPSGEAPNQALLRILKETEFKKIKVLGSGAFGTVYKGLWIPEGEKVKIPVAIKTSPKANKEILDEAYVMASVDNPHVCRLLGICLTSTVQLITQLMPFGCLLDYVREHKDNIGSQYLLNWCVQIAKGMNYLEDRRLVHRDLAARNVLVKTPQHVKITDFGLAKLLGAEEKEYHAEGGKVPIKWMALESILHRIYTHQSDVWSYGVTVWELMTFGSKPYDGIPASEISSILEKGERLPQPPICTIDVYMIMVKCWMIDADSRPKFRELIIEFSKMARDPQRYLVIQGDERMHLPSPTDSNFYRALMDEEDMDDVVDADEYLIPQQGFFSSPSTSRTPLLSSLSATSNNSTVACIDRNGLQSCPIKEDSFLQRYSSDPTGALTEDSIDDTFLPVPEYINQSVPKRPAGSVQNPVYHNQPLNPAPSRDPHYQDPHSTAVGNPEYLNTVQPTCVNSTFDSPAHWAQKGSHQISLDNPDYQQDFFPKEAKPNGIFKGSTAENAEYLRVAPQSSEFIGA
- MEASUREMENT_DESCRIPTION: HotSpot radiometric kinase assay, EGFR Δ746-750 mutant
- DETAILS: 10 μM ATP
pIC50: −log10 of the molar value.
pIC50 below 7 gives Not satisfied; pIC50 at or above it gives Satisfied.

Could you please find out whether CCOc1nn(CCO)c2c1/C=C/c1n[nH]c3ccc(cc13)-c1cnn(C)c1O[C@@H](C)CN(C)C2 has pIC50 that meets 7 or exceeds it?
Satisfied

Could you please find out whether Cc1nn([C@H]2CC[C@@H]2O)c2c1/C=C/c1n[nH]c3ccc(cc13)-c1cnn(C)c1OCCCO2 (racemic) has pIC50 that meets 7 or exceeds it?
Not satisfied

Could you please find out whether CC(C)Oc1nn(CCO)c2c1/C=C/c1n[nH]c3cc(F)c(cc13)-c1cnn(C)c1O[C@@H](C)CN(C)C2 has pIC50 that meets 7 or exceeds it?
Satisfied

Could you please find out whether Cc1nn(CCO)c2c1/C=C/c1n[nH]c3cc(F)c(cc13)-c1cnn(C)c1O[C@@H](C)CN(C)C2 has pIC50 that meets 7 or exceeds it?
Satisfied

Could you please find out whether Cc1nn(C)c2c1/C=C/c1n[nH]c3ccc(cc13)-c1cnn(C)c1OCCN1CC[C@@H](O2)C1=O has pIC50 that meets 7 or exceeds it?
Satisfied

Kindly consider the entry below.
Could you please find out whether Cc1nn(CCN2CCCC2)c2c1/C=C/c1n[nH]c3ccc(cc13)-c1cnn(C)c1C(C)OCCO2 (stereo not shown) has pIC50 that meets 7 or exceeds it?
Not satisfied

###

- MEASUREMENT_TARGET: EGFR L858R mutant (Homo sapiens (Human), UniProt P00533, L858R)
- Sequence (P00533 25-1210 L858R): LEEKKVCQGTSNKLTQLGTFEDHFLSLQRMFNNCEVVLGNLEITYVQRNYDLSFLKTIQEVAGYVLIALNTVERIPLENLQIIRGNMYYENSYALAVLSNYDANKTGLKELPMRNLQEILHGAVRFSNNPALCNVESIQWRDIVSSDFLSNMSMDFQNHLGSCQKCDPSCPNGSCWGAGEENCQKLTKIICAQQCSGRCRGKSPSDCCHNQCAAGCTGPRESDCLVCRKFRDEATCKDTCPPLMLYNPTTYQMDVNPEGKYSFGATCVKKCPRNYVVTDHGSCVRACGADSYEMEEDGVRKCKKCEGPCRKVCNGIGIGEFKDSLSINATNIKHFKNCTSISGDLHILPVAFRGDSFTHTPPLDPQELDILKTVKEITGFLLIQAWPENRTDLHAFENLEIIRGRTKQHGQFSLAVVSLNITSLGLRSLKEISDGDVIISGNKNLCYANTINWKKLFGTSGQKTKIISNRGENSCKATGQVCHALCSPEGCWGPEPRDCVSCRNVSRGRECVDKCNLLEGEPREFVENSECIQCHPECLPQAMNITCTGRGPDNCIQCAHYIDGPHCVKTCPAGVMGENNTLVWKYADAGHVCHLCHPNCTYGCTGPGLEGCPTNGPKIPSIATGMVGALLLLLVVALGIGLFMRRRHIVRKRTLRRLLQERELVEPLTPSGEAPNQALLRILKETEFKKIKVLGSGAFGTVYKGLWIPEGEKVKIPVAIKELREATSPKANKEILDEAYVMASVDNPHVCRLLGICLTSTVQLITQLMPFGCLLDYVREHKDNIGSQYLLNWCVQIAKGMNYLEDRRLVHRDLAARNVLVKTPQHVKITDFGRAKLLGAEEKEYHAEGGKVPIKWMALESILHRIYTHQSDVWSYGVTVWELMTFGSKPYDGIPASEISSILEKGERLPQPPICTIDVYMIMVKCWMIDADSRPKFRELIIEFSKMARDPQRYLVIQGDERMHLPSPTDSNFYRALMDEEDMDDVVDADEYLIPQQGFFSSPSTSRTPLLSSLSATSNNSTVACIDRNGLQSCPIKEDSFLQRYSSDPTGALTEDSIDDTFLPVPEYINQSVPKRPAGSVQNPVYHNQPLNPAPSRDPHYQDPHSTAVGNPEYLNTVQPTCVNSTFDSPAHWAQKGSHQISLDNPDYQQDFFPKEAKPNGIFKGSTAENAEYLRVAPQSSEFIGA
- MEASUREMENT_DESCRIPTION: HotSpot radiometric kinase assay, EGFR L858R mutant
- DETAILS: 10 μM ATP
Property: IC50; scope: individual compounds
Supply the numeric figure in nM, leaving out any unit text.

Fill: IC50 (EGFR L858R mutant (Homo sapiens (Human), UniProt P00533, L858R)) for this compound CCOc1nn(CCO)c2c1/C=C/c1n[nH]c3ccc(cc13)-c1cnn(CC)c1O[C@@H](C)CN(C)C2
1.88

Continuing:
Fill: IC50 (EGFR L858R mutant (Homo sapiens (Human), UniProt P00533, L858R)) for this compound C[C@H]1CN(C)Cc2c(c(OCC#N)nn2CCO)/C=C/c2n[nH]c3ccc(cc23)-c2cnn(C)c2O1
0.12

Fill: IC50 (EGFR L858R mutant (Homo sapiens (Human), UniProt P00533, L858R)) for this compound Cc1nn(C)c2c1/C=C/c1n[nH]c3ccc(cc13)-c1cnn(C)c1O[C@@H](C)CN(C)[C@@H]2C (single isomer, unassigned)
1.47

###

- MEASUREMENT_TARGET: EGFR L858R/T790M/C797S mutant (Homo sapiens (Human), UniProt P00533, C797S/L858R/T790M)
- Sequence (P00533 25-1210 T790M/C797S/L858R): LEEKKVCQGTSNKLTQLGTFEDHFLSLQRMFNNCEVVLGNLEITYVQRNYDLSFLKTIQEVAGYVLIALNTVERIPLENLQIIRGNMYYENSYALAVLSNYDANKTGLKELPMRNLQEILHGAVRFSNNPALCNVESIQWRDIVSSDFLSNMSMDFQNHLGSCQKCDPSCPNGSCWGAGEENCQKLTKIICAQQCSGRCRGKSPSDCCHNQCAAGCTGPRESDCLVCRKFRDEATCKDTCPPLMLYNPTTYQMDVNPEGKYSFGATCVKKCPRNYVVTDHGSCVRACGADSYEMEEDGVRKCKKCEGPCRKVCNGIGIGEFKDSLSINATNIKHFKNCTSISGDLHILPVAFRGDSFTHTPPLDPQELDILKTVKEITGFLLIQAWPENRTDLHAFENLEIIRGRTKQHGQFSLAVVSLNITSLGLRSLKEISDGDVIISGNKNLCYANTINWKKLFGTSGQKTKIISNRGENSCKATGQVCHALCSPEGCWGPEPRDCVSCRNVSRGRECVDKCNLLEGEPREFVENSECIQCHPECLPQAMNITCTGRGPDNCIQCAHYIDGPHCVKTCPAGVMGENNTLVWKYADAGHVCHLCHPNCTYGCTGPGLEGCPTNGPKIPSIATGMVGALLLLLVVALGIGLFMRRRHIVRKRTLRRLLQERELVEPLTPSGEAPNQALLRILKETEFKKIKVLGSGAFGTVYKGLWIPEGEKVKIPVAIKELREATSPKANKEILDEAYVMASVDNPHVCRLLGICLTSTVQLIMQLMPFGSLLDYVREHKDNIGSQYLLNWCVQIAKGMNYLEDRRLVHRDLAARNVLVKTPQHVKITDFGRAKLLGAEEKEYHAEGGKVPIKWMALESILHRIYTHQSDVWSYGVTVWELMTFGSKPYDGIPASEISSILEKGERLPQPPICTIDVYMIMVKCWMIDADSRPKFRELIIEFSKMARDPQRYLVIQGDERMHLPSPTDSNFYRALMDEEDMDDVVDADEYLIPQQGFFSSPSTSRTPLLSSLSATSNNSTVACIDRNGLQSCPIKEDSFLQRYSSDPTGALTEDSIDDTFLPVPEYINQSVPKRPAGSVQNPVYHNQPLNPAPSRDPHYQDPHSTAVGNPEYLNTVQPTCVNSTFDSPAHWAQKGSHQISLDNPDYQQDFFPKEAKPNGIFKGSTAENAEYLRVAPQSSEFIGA
- MEASUREMENT_DESCRIPTION: HotSpot radiometric kinase assay, EGFR L858R/T790M/C797S mutant
- DETAILS: 10 μM ATP
- Procedure: Biochemical Assays for Inhibition of Wild-Type and Mutant EGFRs Briefly, specific kinase/substrate pairs along with required cofactors were prepared in reaction buffer; 20 mM Hepes pH 7.5, 10 mM […], 1 mM EGTA, 0.02% Brij35, 0.02 mg/ml BSA, 0.1 mM Na3VO4, 2 mM DTT, 1% DMSO. Compounds were delivered into the reaction, followed […] later by addition of a mixture of ATP (Sigma, St. Louis MO) and ^33P ATP (Perkin Elmer, Waltham MA) to a final concentration of 10 μM. […]
Exam item: assign fulfilled to entries whose IC50 is below 50 nM and not fulfilled to entries at or above 50 nM. Note that a value of exactly 50 nM receives not fulfilled.

Past entries and their recorded results:
Threshold test, IC50 < 50 nM: COCc1nn(C)c2c1/C=C/c1n[nH]c3ccc(cc13)-c1cnn(C)c1OCCCO2
not fulfilled

Threshold test, IC50 < 50 nM: CCOc1nn([C@@H](C)CO)c2c1/C=C/c1n[nH]c3cc(F)c(cc13)-c1cnn(C)c1O[C@H](C)CN(C(C)C)C2
fulfilled

Threshold test, IC50 < 50 nM: CCN1Cc2c(c(OC(C)C)nn2CCO)/C=C/c2n[nH]c3cc(F)c(cc23)-c2cnn(C)c2O[C@@H](C)C1
fulfilled

Threshold test, IC50 < 50 nM: Cn1ncc2c1OCCCCOc1ccccc1/C=C/c1n[nH]c3ccc-2cc13
fulfilled

Threshold test, IC50 < 50 nM: Cc1nn(C)c2c1CN(C)C[C@H](C)Oc1c(cnn1C)-c1ccc3[nH]nc(c3c1)/C=C/2
fulfilled

Threshold test, IC50 < 50 nM: CCOc1nn([C@@H](C)CO)c2c1/C=C/c1n[nH]c3ccc(cc13)-c1cnn(C)c1O[C@@H](C)CN(C)C2
fulfilled

Kindly consider the entry below.
Threshold test, IC50 < 50 nM: Cc1c2c(nn1CCO)OCCCOc1c(cnn1C)-c1ccc3[nH]nc(c3c1)/C=C/2
not fulfilled

###

- MEASUREMENT_TARGET: EGFR Δ746-750/C797S mutant (Homo sapiens (Human), UniProt P00533, C797S/DEL746-750)
- Sequence (P00533 other isoform, or with tags, fused parts or gaps C797S/del 1-668/del 746-750 limits assumed): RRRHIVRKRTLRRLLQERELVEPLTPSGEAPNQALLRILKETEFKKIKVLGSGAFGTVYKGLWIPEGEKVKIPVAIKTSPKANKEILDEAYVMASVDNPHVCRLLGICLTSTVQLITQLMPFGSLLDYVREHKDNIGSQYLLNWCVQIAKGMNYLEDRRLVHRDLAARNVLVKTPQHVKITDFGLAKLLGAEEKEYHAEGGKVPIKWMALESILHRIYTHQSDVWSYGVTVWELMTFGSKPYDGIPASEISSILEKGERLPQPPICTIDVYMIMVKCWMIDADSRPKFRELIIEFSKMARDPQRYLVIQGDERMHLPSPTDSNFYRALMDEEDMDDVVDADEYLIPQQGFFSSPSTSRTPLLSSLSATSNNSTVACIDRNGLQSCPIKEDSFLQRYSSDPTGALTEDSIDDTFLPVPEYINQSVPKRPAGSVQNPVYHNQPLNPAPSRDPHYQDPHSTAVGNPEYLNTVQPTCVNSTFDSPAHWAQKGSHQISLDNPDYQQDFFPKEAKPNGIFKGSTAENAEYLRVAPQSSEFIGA
- MEASUREMENT_DESCRIPTION: HotSpot radiometric kinase assay, EGFR Δ746-750/C797S mutant
- DETAILS: 10 μM ATP
OBSERVATION_TYPE: IC50 (nM)
Supply the numeric figure in nM, leaving out any unit text.

Here's what some known entries look like.
Identify measured IC50 corresponding to Cc1nn(C)c2c1/C=C/c1n[nH]c3ccc(cc13)-c1cnn(C)c1O[C@@H]1CCN(C2)C1
13.6

Identify measured IC50 corresponding to CCOc1nccc2c1/C=C/c1n[nH]c3ccc(cc13)-c1cnn(C)c1O[C@@H](C)CN(C)C2
653

Identify measured IC50 corresponding to Cc1nn([C@@H]2COC[C@H]2O)c2c1/C=C/c1n[nH]c3ccc(cc13)-c1cnn(C)c1OCCCO2 (single isomer, unassigned)
803

Identify measured IC50 corresponding to Cc1nn(C)c2c1/C=C/c1n[nH]c3ccc(cc13)-c1cnn(C)c1CN(C)[C@@H](C)CO2
68.5

Identify measured IC50 corresponding to CCN1Cc2nn(C)c(C)c2/C=C/c2n[nH]c3ccc(cc23)-c2cnn(C)c2O[C@@H](C)C1
2.42

Identify measured IC50 corresponding to C[C@H]1CN(C)Cc2c(c(O)nn2C)/C=C/c2n[nH]c3ccc(cc23)-c2cnn(C)c2O1
23.6

Continuing:
Identify measured IC50 corresponding to Cc1nn(C)c2c1/C=C/c1n[nH]c3ccc(cc13)-c1cnn(C)c1O[C@@H](C)CN(C)C2
5.8

Identify measured IC50 corresponding to C[C@@H](C#N)Oc1nn(CCO)c2c1/C=C/c1n[nH]c3cc(F)c(cc13)-c1cnn(C)c1O[C@@H](C)CN(C)C2
2.56

Identify measured IC50 corresponding to Cn1ncc2c1OCCN1CC[C@@H](Oc3ccc(F)cc3/C=C/c3n[nH]c4ccc-2cc34)C1=O
67

Identify measured IC50 corresponding to CCOc1nn(CCO)c2c1/C=C/c1n[nH]c3ccc(cc13)-c1cnn(C)c1O[C@@H]1CN(C)C[C@H]1N(C)C2 (single isomer, unassigned)
422

Identify measured IC50 corresponding to CCOc1nn(CC(C)(C)O)c2c1/C=C/c1n[nH]c3ccc(cc13)-c1cnn(C)c1O[C@@H](C)CN(CC)C2
2.17

Identify measured IC50 corresponding to CCc1nn(C)c2c1/C=C/c1n[nH]c3ccc(cc13)-c1cnn(C)c1O[C@@H](C)COC2
425

Identify measured IC50 corresponding to Cc1c2c(nn1C)CN(C)CCOc1c(cnn1C)-c1ccc3[nH]nc(c3c1)/C=C/2
130

Identify measured IC50 corresponding to Cc1nn([C@H]2COC[C@@H]2O)c2c1/C=C/c1n[nH]c3ccc(cc13)-c1cnn(C)c1OCCCO2 (single isomer, unassigned)
90.8

Identify measured IC50 corresponding to Cc1nn(C)c2c1/C=C/c1n[nH]c3ccc(cc13)-c1cnn(C)c1OCCN(C)C2
133

Identify measured IC50 corresponding to CCOc1nn([C@@H](C)CO)c2c1/C=C/c1n[nH]c3cc(F)c(cc13)-c1cnn(C)c1O[C@@H](C)CN(CC)C2
1.93

Identify measured IC50 corresponding to Cc1nn(C)c2c1/C=C/c1n[nH]c3ccc(cc13)-c1cnn(C)c1CN(C)CCO2
8.93

Identify measured IC50 corresponding to Cc1c2c(nn1CCO)OCCOC(C)c1c(cnn1C)-c1ccc3[nH]nc(c3c1)/C=C/2 (stereo not shown)
284

Identify measured IC50 corresponding to C[C@H]1CN(C)Cc2c(c(OCC#N)nn2C)/C=C/c2n[nH]c3ccc(cc23)-c2cnn(C)c2O1
4.72

Identify measured IC50 corresponding to CC(C)Oc1nn(CCO)c2c1/C=C/c1n[nH]c3ccc(cc13)-c1cnn(C)c1OCC(CF)N(C)C2 (stereo not shown)
6.43

Identify measured IC50 corresponding to CC(C)Oc1nn(CCO)c2c1/C=C/c1n[nH]c3cc(F)c(cc13)-c1cnn(C)c1O[C@H](C)CN(C(C)C)C2
8.68

Identify measured IC50 corresponding to CCOc1nn(CCO)c2c1/C=C/c1n[nH]c3ccc(cc13)-c1cnn(C)c1O[C@@H](C)CN(C(C)C)C2
0.72

Identify measured IC50 corresponding to CCN1Cc2c(c(OC(C)C)nn2[C@@H](C)CO)/C=C/c2n[nH]c3cc(F)c(cc23)-c2cnn(C)c2O[C@@H](C)C1
5.13

Identify measured IC50 corresponding to CCOc1nn(CCO)c2c1/C=C/c1n[nH]c3ccc(cc13)-c1c(C)nn(C)c1OC[C@H](C)N(C1CC1)C2
1.42

Identify measured IC50 corresponding to Cc1nn(CCO)c2c1/C=C/c1n[nH]c3cc(Cl)c(cc13)-c1cnn(C)c1O[C@@H](C)CN(C)C2
4.99

Identify measured IC50 corresponding to C[C@H]1CN(C)Cc2c(c(OCC(F)(F)F)nn2CCO)/C=C/c2n[nH]c3cc(F)c(cc23)-c2cnn(C)c2O1
2870

Identify measured IC50 corresponding to Cc1nn([C@H]2CC[C@@H]2O)c2c1/C=C/c1n[nH]c3ccc(cc13)-c1cnn(C)c1OCCCO2 (racemic)
775

The values you see were collected from patent US20250353864A1.
